Test system: KRas Q61H mutant
Experiment: Ras GTP binding domain inhibition assay (Cy3-GTP/Cy5-GTP competition)
Set-up: species or system human
Settings: 20 μM; with SOS
From the text: The following method was developed as specific assay for the following proteins: KRas wild type, KRas Q61H mutant, KRas G12C mutant, KRas G12D mutant, HRas wild type, Rac-1, and Rho-A. […] The small GTPases proteins: KRas wild type. KRas Q61H mutant, KRas G12C mutant, KRas G12D mutants, HRas wild type, Rac-1, and Rho-A were expressed as His-tagged proteins. In addition, the Guanosine nucleotide Exchange Factor (GEF) Sos protein (residues 556-1049) was expressed as a His-tagged protein. […]
property.name: KRas Q61H mutant + SOS: % inh.

molecule: COc1c(O)nc(-c2ccccn2)nc1Oc1cnn(C)c1 [drawing 803]
experimental.target: KRas Q61H mutant
property.name: KRas Q61H mutant + SOS: % inh.
experimental.result: C (51-75% inhibition)
//
molecule: Cn1ccnc1-c1nc(O)c2scc(-c3ccccn3)c2n1 [drawing 853]
experimental.target: KRas Q61H mutant
property.name: KRas Q61H mutant + SOS: % inh.
experimental.result: C (51-75% inhibition)
//
molecule: COC1CCN(c2nc(-c3nccn3C)nc3sc(-c4ccn(C)n4)c(-c4ccccc4)c23)C1 (stereo not drawn) [drawing 863]
experimental.target: KRas Q61H mutant
property.name: KRas Q61H mutant + SOS: % inh.
experimental.result: C (51-75% inhibition)
//
molecule: Oc1nc(-c2ncc3n2CCCC3)nc2c(-c3ccccn3)csc12 [drawing 833]
experimental.target: KRas Q61H mutant
property.name: KRas Q61H mutant + SOS: % inh.
experimental.result: C (51-75% inhibition)
//
molecule: COCCn1ccnc1-c1nc(O)c2scc(-c3ccccn3)c2n1 [drawing 852]
experimental.target: KRas Q61H mutant
property.name: KRas Q61H mutant + SOS: % inh.
experimental.result: C (51-75% inhibition)
//
molecule: COc1ccc(-c2sc3nc(-c4nccn4C)nc(N4CCC(OC)C4)c3c2-c2ccccc2)cn1.Cl (stereo not drawn)
experimental.target: KRas Q61H mutant
property.name: KRas Q61H mutant + SOS: % inh.
experimental.result: D (76-100% inhibition)
//
molecule: COc1cccc(-c2sc3nc(-c4nccn4C)nc(N4CCC(OC)C4)c3c2-c2ccccc2)c1F.Cl (stereo not drawn) [drawing 838]
experimental.target: KRas Q61H mutant
property.name: KRas Q61H mutant + SOS: % inh.
experimental.result: D (76-100% inhibition)

Turning now to a further record.
Kindly note the recorded KRas Q61H mutant + SOS: % inh. for COc1nscc1-c1sc2nc(-c3nccn3C)nc(N3CCC(OC)C3)c2c1-c1ccccc1.Cl (stereo not drawn) , which is D (76-100% inhibition)

###

target: Rho-A (Homo sapiens, UniProt P61586); assay: Ras GTP binding domain inhibition assay (Cy3-GTP/Cy5-GTP competition); settings: with SOS, read-out: Rho-A + SOS: % inh.
property.name: inhibition at 20 µM

# example entries with known answers
compound: CO[C@H]1C[C@H](Nc2nc(-c3nccn3C)nc3sc(-c4ccn(C)n4)c(-c4ccccc4)c23)C1 [drawing 1041]
experimental.result: 51 to 75%

compound: Cn1ccc(-c2sc3nc(-c4nccn4C)nc(NC4CCOCC4)c3c2-c2ccccc2)n1 [drawing 997]
experimental.result: 51 to 75%

Items follow; give inhibition at 20 µM for each.
1. CO[C@H]1CC[C@@H](Nc2nc(-c3nccn3C)nc3sc(C(=O)N4CCOCC4)c(-c4ccccc4)c23)C1 [drawing 1062]
2. CO[C@H]1C[C@@H](Nc2nc(-c3nccn3C)nc3sc(C(=O)NC(C)C)c(-c4ccccc4)c23)C1 [drawing 1055]

76 to 100%
51 to 75%

###

test system: KRas wild type; assay: Ras GTP binding domain inhibition assay (Cy3-GTP/Cy5-GTP competition); parameters: species or system human; settings: 20 μM; with SOS (Table 7A)
property.name: KRas wild type + SOS: % inh.

# example entries with known answers
compound: COc1cccc(-c2sc3nc(-c4nccn4C)nc(NC4CCC(OC)C4)c3c2C)c1F (stereo not shown) [drawing 893]
experimental.result: C (51-75% inhibition)
--
compound: CO[C@H]1C[C@@H](Nc2nc(-c3nccn3C)nc3sc(C(=O)NC(C)C)c(-c4ccccc4)c23)C1 [drawing 920]
experimental.result: D (76-100% inhibition)
--
compound: CO[C@H]1CC[C@@H](Nc2nc(-c3nccn3C)nc3sc(C(=O)N4CCCC4)c(-c4ccccc4)c23)C1 [drawing 926]
experimental.result: C (51-75% inhibition)
--
compound: COC1CCC(Nc2nc(-c3nccn3C)nc3sc(-c4cccc(O)c4F)c(-c4ccccc4)c23)C1 (stereo not shown) [drawing 885]
experimental.result: C (51-75% inhibition)
--
compound: COC1CCC(Nc2nc(-c3nccn3C)nc3sc(-c4cccc5[nH]ncc45)c(C)c23)C1 (stereo not shown) [drawing 895]
experimental.result: D (76-100% inhibition)

Turning now to a further record.
Kindly note the recorded KRas wild type + SOS: % inh. for CO[C@H]1CC[C@@H](Nc2nc(-c3nccn3C)nc3sc(-c4ccn(C)n4)c(C)c23)C1 [drawing 915] , which is D (76-100% inhibition)

###

Please go through the items and note down their inhibition at 20 µM.
target: KRas G12D mutant (Homo sapiens, UniProt P01116, G12D); construct: fused on or other part: His tag, used for capture on nickel-coated plates; test: Ras GTP binding domain inhibition assay (Cy3-GTP/Cy5-GTP competition); conditions: 20 μM; with SOS (Table 7A); read-out: KRas G12D mutant + SOS: % inh.

molecule: Cc1c(-c2ccn(C)n2)sc2nc(-c3nccn3C)nc(NCCCC(=O)N(C)C)c12 [drawing 917]
inhibition at 20 µM: 76 to 100%
//
molecule: CO[C@H]1C[C@@H](Nc2nc(-c3nccn3C)nc3sc(C(=O)N4CCOCC4)c(-c4ccccc4)c23)C1 [drawing 922]
inhibition at 20 µM: 51 to 75%
//
molecule: CO[C@H]1C[C@@H](Nc2nc(-c3ccccn3)nc3sccc23)C1 [drawing 902]
inhibition at 20 µM: 51 to 75%
//
molecule: CC(C)COc1ccc(-c2csc3c(O)nc(-c4nccn4Cc4ccccn4)nc23)cn1 [drawing 899]
inhibition at 20 µM: 51 to 75%
//
molecule: COc1c(O)nc(-c2ccccn2)nc1Nc1ccccc1 [drawing 880]
inhibition at 20 µM: 26 to 50%
//
molecule: CO[C@H]1CC[C@@H](Nc2nc(-c3nccn3C)nc3sc(C(=O)N4CCOCC4)c(-c4ccccc4)c23)C1 [drawing 927]
inhibition at 20 µM: 51 to 75%

Items follow; give inhibition at 20 µM for each.
1. CO[C@H]1CC[C@@H](Nc2nc(-c3ncc[nH]3)nc3sc(-c4ccn(C)n4)c(-c4ccccc4)c23)C1 [drawing 911]
2. COc1cccc(-c2sc3nc(-c4nc(C)cn4C)nc(N[C@@H]4CC[C@H](OC)C4)c3c2C)c1F [drawing 896]

1. 51 to 75%
2. 26 to 50%

###

biological target: Rac-1 (Homo sapiens, UniProt P63000); test: Ras GTP binding domain inhibition assay (Cy3-GTP/Cy5-GTP competition); conditions: without SOS, read-out: Rac-1: % inh.
property.name: inhibition at 20 µM

# example entries with known answers
compound: COCCNc1nc(-c2cn(C)cn2)nc2sc(-c3cc(OC)ccc3Cl)c(-c3ccc(OC)cc3)c12 [drawing 930]
inhibition at 20 µM: 51 to 75%

compound: COc1cccc(Oc2nc(-c3ccccn3)nc(O)c2OC)c1 [drawing 936]
inhibition at 20 µM: 76 to 100%

compound: Cn1ccc(-c2sc3nc(-c4nccn4C)nc(O)c3c2-c2ccccc2)n1 [drawing 1039]
inhibition at 20 µM: 26 to 50%

Items follow; give inhibition at 20 µM for each.
1. Oc1nc(-c2ncc3ccccn23)nc2c(-c3ccccn3)csc12 [drawing 969]
2. CC(C)NC(=O)c1nc(-c2nccn2C)nc(O)c1O [drawing 965]
3. Oc1nc(-c2cn3cccnc3n2)nc2c(-c3ccccn3)csc12 [drawing 983]
4. COc1ccc(-c2sc3nc(-c4nccn4C)nc(N4CCC(OC)C4)c3c2-c2ccccc2)cn1 (stereo not drawn) [drawing 971]
5. COC1CCC(Nc2nc(-c3nccn3C)nc3sc(-c4cccc5[nH]ncc45)c(C)c23)C1 (stereo not drawn) [drawing 1030]
6. CO[C@H]1C[C@@H](Nc2nc(-c3ccccn3)nc3sccc23)C1 [drawing 1037]
7. COc1c(F)cccc1-c1sc2nc(-c3nccn3C)nc(NC3CCC(OC)C3)c2c1-c1ccccc1 (stereo not drawn) [drawing 1021]

["76 to 100%", "51 to 75%", "0%", "0%", "51 to 75%", "76 to 100%", "26 to 50%"]

Items follow; give inhibition at 20 µM for each.
1. COCCCNc1nc(-c2nccn2C)nc2sc(-c3ccn(C)n3)c(-c3ccc(OC)cc3)c12 [drawing 1005]
2. CO[C@H]1CC[C@@H](Nc2nc(-c3nccn3C)nc3sc(C(=O)N4CCOCC4)c(-c4ccccc4)c23)C1 [drawing 1062]
3. Cn1ccc(-c2sc3nc(-c4nccn4C)nc(N[C@@H]4CC[C@H](O)C4)c3c2C2=CC=CCC=C2)n1 (racemic)
4. COCCn1cc(Nc2nc(-c3ccccn3)nc(OC)c2OC)cn1 [drawing 928]

["0%", "76 to 100%", "1 to 25%", "1 to 25%"]
